System: Z-138 cell line
protocol: Z-138 Proliferation Assay (Cell Titer Glo, 5 days)
Format: cell-based
reportedConditions: Homo sapiens, 120 h; Z-138 cells, 5 days, Cell Titer Glo; read-out: Proliferation EC50
pEC50: −log10 of the molar value.
Listed here are compounds together with their documented pEC50.
measure: pEC50

# compound, experimentalValue
measured = [
    ("CC(=O)N1CC[C@H](Nc2cc(C(=O)NC[C@H](O)CN3CCc4ccccc4C3)ncn2)C1", "5.00 to 6.00"),
    ("CC(C)Oc1nc(NC2CNC2)cc(C(=O)NC[C@H](O)CN2CCc3ccccc3C2)n1", "6.00 to 7.00"),
    ("CN(C)CCN(C)c1nc(NC2CNC2)cc(C(=O)NC[C@H](O)CN2CCc3ccccc3C2)n1", "6.00 to 7.00"),
    ("CC(=O)N1CC(Nc2cc(C(=O)NCCCN3CCc4ccccc4C3)ncn2)C1", "< 5.30"),
    ("CC(C)C(=O)N1CC(Nc2cc(C(=O)NC[C@H](O)CN3CCc4ccccc4C3)ncn2)C1", "> 7.00"),
    ("CC(=O)N1CC(Nc2cc(C(=O)NC[C@H](O)CN3CCc4ccccc4C3)nc(C(C)C)n2)C1", "> 7.00"),
    ("CC(=O)N1CCC(Nc2cc(C(=O)NC[C@H](O)CN3CCc4ccccc4C3)nc(N(C)C)c2)CC1", "6.00 to 7.00"),
    ("CC(=O)N1CCC(Nc2cc(C(=O)NC[C@H](O)CN3CCc4ccccc4C3C)ncn2)CC1 (some centres unmarked)", "5.00 to 6.00"),
]
